Experiment: gradient 5% acetonitrile 3 min, to 50% in 2 min, to 85% in 15 min, held 3 min, 100 µL/min
Details: column: Zorbax Extend-C18 2.1 x 50 mm; eluents: water / acetonitrile, 0.1% formic acid
ATTRIBUTE_MEASURED: RP-LC retention time (s)
Numeric answer only, unit s assumed.

In the examples that follow, each entry is paired with its recorded RP-LC retention time.
COMPOUND: CN1C(=O)C(C)(C(=O)Nc2ccccc2)Oc2cccnc21 (stereo unspecified)
UNIT_NAME: s
VALUE_OBSERVED: 788
//
COMPOUND: CC1CCN(C(=O)c2cc3c(s2)CCC(C(=O)NCCCN2CCOCC2)C3)CC1 (stereo unspecified)
UNIT_NAME: s
VALUE_OBSERVED: 542
//
COMPOUND: CN1C(=O)C2CCCCN2c2ccc(C(=O)N3CCC4(CC3)OCCO4)cc21 (stereo unspecified)
UNIT_NAME: s
VALUE_OBSERVED: 750

Recorded RP-LC retention time (compound COc1ccccc1N1CCN(c2ncc(C(=O)O)c(C)n2)CC1 ): 750

Recorded RP-LC retention time (compound COCc1nc(NCc2ccc3c(c2)OCO3)ncc1C(=O)O ): 673

Recorded RP-LC retention time (compound O=C1CCc2cc(S(=O)(=O)NCCc3ccc(Cl)cc3)cc3c2N1CCC3 ): 903

Recorded RP-LC retention time (compound COc1ccc(Cl)cc1NC(=O)N1CCC(C(=O)Nc2nccs2)CC1 ): 764

The reported measurements were obtained from the METLIN SMRT retention time set (Domingo-Almenara et al. 2019).
